- Test system: NKG2A−/NKG2C+ NK cells
- Measurement Description: NK cell activation markers in NKG2A-/NKG2C+ NK cells incubated with peptide and K562 expressing HLA-E (activation)
- Format: cell-based, human
- Condition Parameters: NKG2A-/NKG2C+ NK cells, K562/HLA-E, Trial 3
Where no end group is shown, it is not given here.
Please enter T where percentage of TNF+ NK cells is greater than or equal to 60%, and F where it is lower.

>  <Monomer Sequence>
ILTDRSLWL [human4, peptide FBXO41 670-678 derived from the human proteome]

>  <Class Name>
T

$$$$
>  <Monomer Sequence>
VMPGRTLCF [human11, peptide TACR3 226-234 derived from the human proteome]

>  <Class Name>
T

$$$$
>  <Monomer Sequence>
TLPERTLYL [human7, peptide ECEL1 269-277 derived from the human proteome]

>  <Class Name>
T

$$$$
>  <Monomer Sequence>
VMAPQSLLL [VMAPQSLLL (PQS), negative control peptide, reference compound]

>  <Class Name>
F

$$$$
>  <Monomer Sequence>
TLPKRGLFL [human2, TLPKRGLFL]

>  <Class Name>
T

$$$$
>  <Monomer Sequence>
QMPSRSLLF [human1, QMPSRSLLF]

>  <Class Name>
T

$$$$
>  <Monomer Sequence>
VNPGRSLFL [human5, VNPGRSLFL]

>  <Class Name>
F

$$$$
>  <Monomer Sequence>
TGPWRSLWI [human3, TGPWRSLWI]

>  <Class Name>
F

$$$$
>  <Monomer Sequence>
VLPHRTQFL [CMV1, novel CMV-derived peptide UL120 72-80, Merlin]

>  <Class Name>
T

$$$$
>  <Monomer Sequence>
FLPNRSLLF [human8, peptide SLC52A3 354-362 derived from the human proteome]

>  <Class Name>
T

$$$$
>  <Monomer Sequence>
VMPPRTLLL [human15, peptide HLA-A 3-11 derived from the human proteome]

>  <Class Name>
T

$$$$
>  <Monomer Sequence>
TAPARTMFL [human13, TAPARTMFL]

>  <Class Name>
F

$$$$
>  <Monomer Sequence>
NMPARTVLF [human14, peptide MTREX 490-498 derived from the human proteome]

>  <Class Name>
T

$$$$

====

- Assayed Target: CD94/NKG2A (Homo sapiens, UniProt P26715+Q13241)
- Sequence (P26715 94-233 limits assumed, one chain of several): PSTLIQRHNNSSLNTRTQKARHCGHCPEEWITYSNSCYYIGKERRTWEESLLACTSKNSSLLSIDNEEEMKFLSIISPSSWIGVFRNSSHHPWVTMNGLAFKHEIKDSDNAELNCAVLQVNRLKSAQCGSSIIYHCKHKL
- Measurement Description: Steady-state surface plasmon resonance of peptide-HLA-E complex with CD94/NKG2A
- Format: binding
- Condition Parameters: CD94/NKG2A concentration 0.2 μM
Where no end group is shown, it is not given here.
Measured Quantity: binding of peptide-HLA-E complex to CD94/NKG2A normalized to a fitted Rmax

>  <Monomer Sequence>
QMPSRSLLF [human1, QMPSRSLLF]

>  <Value Observed>
0.068

$$$$
>  <Monomer Sequence>
TAPARTMFL [human13, TAPARTMFL]

>  <Value Observed>
0.037

$$$$
>  <Monomer Sequence>
TLPKRGLFL [human2, TLPKRGLFL]

>  <Value Observed>
0.046

$$$$
>  <Monomer Sequence>
VNPGRSLFL [human5, VNPGRSLFL]

>  <Value Observed>
0.288

$$$$
>  <Monomer Sequence>
TGPWRSLWI [human3, TGPWRSLWI]

>  <Value Observed>
0.019

$$$$

====

- Assayed Target: CD94/NKG2C (Homo sapiens, UniProt P26717+Q13241)
- Sequence (P26717 94-231 limits assumed): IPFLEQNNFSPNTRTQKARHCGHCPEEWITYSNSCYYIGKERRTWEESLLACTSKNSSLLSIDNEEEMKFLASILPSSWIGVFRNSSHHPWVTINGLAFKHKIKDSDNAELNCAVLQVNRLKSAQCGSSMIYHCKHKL
- Sequence (Q13241 32-179 limits assumed): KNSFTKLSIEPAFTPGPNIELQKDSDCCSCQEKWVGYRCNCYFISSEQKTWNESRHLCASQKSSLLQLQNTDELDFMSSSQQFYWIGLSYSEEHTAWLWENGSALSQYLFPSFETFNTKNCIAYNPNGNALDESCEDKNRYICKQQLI
- Measurement Description: Steady-state surface plasmon resonance of peptide-HLA-E complex with CD94/NKG2C
- Type: binding
- Condition Parameters: steady-state SPR; CD94/NKG2C analyte concentration 1.6 μM
Where no end group is shown, it is not given here.
Entries and their measured Binding of peptide-HLA-E complexes to CD94/NKG2C normalized to a theoretical Rmax follow.
Measured Quantity: Binding of peptide-HLA-E complexes to CD94/NKG2C normalized to a theoretical Rmax

>  <Monomer Sequence>
VNPGRSLFL [human5, VNPGRSLFL]

>  <Value Observed>
0.180

$$$$
>  <Monomer Sequence>
TAPARTMFL [human13, TAPARTMFL]

>  <Value Observed>
0.086

$$$$
>  <Monomer Sequence>
TLPKRGLFL [human2, TLPKRGLFL]

>  <Value Observed>
0.066

$$$$
>  <Monomer Sequence>
QMPSRSLLF [human1, QMPSRSLLF]

>  <Value Observed>
0.088

$$$$
>  <Monomer Sequence>
TGPWRSLWI [human3, TGPWRSLWI]

>  <Value Observed>
0.010

$$$$
